B1: MMP1 (parent)
chain: MFFKDRFYMRTNPFYPEVELNFIS

# Variants of: B1
# method: protein stability index of a GFP-peptide fusion (GPS, HEK-293T) (PSI 1-6); higher = more stable;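 further: lentivirally expressed fusions sorted by FACS into six bins by GFP to DsRed ratio, PSI derived from sequencing read proportions per bin multiplied by bin number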
# condition: c terminus: a fixed tail appended
test.readout: protein stability index
Just the number, please, no unit attached.

# sequence.variant, protein stability index
rows = [
    ("R6M", 2.35),
    ("Y15S", 2.69),
    ("V18E", 3.27),
]

Please turn your attention to the following entry.
Q: Given D5S , state its recorded protein stability index.
Result: 2.64
